Tested On: T1, 4H3655-AA
T1 chain: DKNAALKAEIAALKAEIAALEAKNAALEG
Assay Name: two-hybrid library CCmax;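 note: natural log of median RNA to DNA barcode read ratio; higher means stronger binding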
Experimental Parameters: mean of both orientations
Entries and their measured interaction score follow.
Could you keep your reply to the number by itself?

Solved cases (4 shown):
>  <Binder>
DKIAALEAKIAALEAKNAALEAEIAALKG [4H2354-AA]

>  <Measure Name>
interaction score

>  <Numeric Result>
-1.28

$$$$
>  <Binder>
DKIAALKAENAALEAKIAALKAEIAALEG [4H2729-AA]

>  <Measure Name>
interaction score

>  <Numeric Result>
-0.901

$$$$
>  <Binder>
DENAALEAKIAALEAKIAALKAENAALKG [4H1324-AA]

>  <Measure Name>
interaction score

>  <Numeric Result>
-0.51

$$$$
>  <Binder>
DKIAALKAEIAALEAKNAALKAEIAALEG [4H2617-AA]

>  <Measure Name>
interaction score

>  <Numeric Result>
-1.76

$$$$

Prompt line: Please report the measured interaction score for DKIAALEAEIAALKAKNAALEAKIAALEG [4H2165-AA]
Response line: -1.37

Prompt line: Please report the measured interaction score for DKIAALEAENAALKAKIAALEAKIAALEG [4H2277-AA]
Response line: -1.32

Prompt line: Please report the measured interaction score for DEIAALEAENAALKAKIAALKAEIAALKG [4H234-AA]
Response line: -0.983
